# credit: PubChem BioAssay (NCI)

Reported TGI values are given for each entry in this list.
Test system: SK-MEL-28 melanoma
assay.protocol: NCI tumour cell line growth inhibition, 48 h

Check out these entries, answers already filled in.
>>> value_observed("O=C(O)CCC1C(=O)C2CCN1CC2 (stereo not given)")
"> 100 µM"
>>> value_observed("NNC(=O)N/N=C(/CC1(O)C(=O)Nc2ccc(Br)cc21)c1ccccc1 (stereo not given)")
"> 100 µM"
>>> value_observed("CCOC(=O)CCCc1cc(=O)c2c(C)c3[nH]c4ccc(Cl)cc4c3c(C)c2[nH]1")
"> 100 µM"
>>> value_observed("Cc1cc(NS(=O)(=O)c2ccc(NC(=O)c3cccc4c(Nc5ccc(S(=O)(=O)Nc6cc(C)on6)cc5)c5ccc(Cl)cc5nc34)cc2)no1")
"> 100 µM"
>>> value_observed("O=C(c1ccc(Cl)c(Cl)c1)N(C(=S)OC12CC3CC(CC(C3)C1)C2)c1ccccc1")
"> 100 µM"
>>> value_observed("Cn1ccc(S(=O)(=O)N2CCC[C@H](Nc3nccc(-c4c(-c5cccc(O)c5)nc5occn45)n3)C2)n1")
"20.5 µM"
>>> value_observed("CCOC(=O)C(Cc1ccccc1)n1c(O)c(/C=N/c2ncc(Cc3ccc(Cl)cc3Cl)s2)sc1=S (stereo not given)")
"26.4 µM"
>>> value_observed("O=S1(=O)C[C@H](NCc2ccccc2)[C@H](NCc2ccccc2)C1")
"> 100 µM"
>>> value_observed("[N-]=[N+]=NC1(Cc2ccccc2)C(=O)Nc2ccccc2C1=O (stereo not given)")
"> 100 µM"
>>> value_observed("O=C1NC(=S)NC(=O)C1=Cc1ccc([N+](=O)[O-])o1")
"47.7 µM"

Task: For SK-MEL-28 melanoma, give the measured TGI of the entry "O=c1c2c3c(sc2nc2n1sc1nc4sc5c(c4c(=O)n12)CCCC5)CCCC3"
Output: > 100 µM

Task: Tell me its TGI on SK-MEL-28 melanoma: "Cc1cc(NS(=O)(=O)c2ccc(-c3cnc(C4CC4)o3)cc2)ccc1Cl"
Output: 20 µM

Task: Report TGI under test system SK-MEL-28 melanoma for NC(N)=NCCCC(Nc1c2ccccc2nc2ccccc12)C(=O)O (stereo not given) .
Output: > 100 µM

Task: Give TGI for "CC(C)(C)c1cc(Cc2ccc(S(C)(=O)=O)cc2)c(O)c(C(C)(C)C)c1" tested on SK-MEL-28 melanoma.
Output: 32 µM

Task: Provide TGI, recorded with SK-MEL-28 melanoma, of "CCc1cccc(C(C)C)c1NC(=O)C(=O)Nn1c(=S)[nH]c2ccccc2c1=O"
Output: > 100 µM

Task: Specify the recorded TGI for "Cc1ccc2c(-c3ccnc(Nc4cccc(C(F)(F)F)c4)n3)c(-c3ccccc3)nn2n1" , system: SK-MEL-28 melanoma.
Output: > 25 µM

====

Tested on: NCI-H226 lung
assay.protocol: NCI tumour cell line growth inhibition, 48 h
Reported TGI values for a set of compounds
Just the number please, in µM, no unit attached.

// worked examples, TGI included
>>> value_observed("CC(C)N(CCNc1nc(C(Cl)(Cl)Cl)nc2cc(Cl)ccc12)C(C)C")
3.57
>>> value_observed("[CH3][Ge]([CH3])([CH2]CC#N)[S]c1ccccc1")
33.4

Now for another entry.
Task: Indicate its recorded TGI; the compound in question is COc1cc(C2C=C(C)N=C3SC=C(C)N32)cc(OC)c1OC (stereo not given)
Output: 5.81
